Measurement Description: Pharmacokinetics in blood: CBZ in plasma by LC-MS/MS in MAS98.12 bearing mice
Format: in vivo
Run Conditions: female, athymic nude foxn1nu, mouse, iv, 15 mg/kg, 15 mg/kg i.v., interpolation of the two first data points (up to 1 hr), read-out: distribution half-life
Excerpt: CBZ quantification by LC-MS/MS. CBZ, as the pure chemical or part of NPs, was quantified by LC-MS/MS, using an Agilent 1290 HPLC system coupled to an Agilent 6490 triple quadrupole mass spectrometer. […] MS detection was in positive ESI mode (Agilent Jetstream) quantified in multiple reaction monitoring (MRM) mode using the transition m/z 858.3→577.2. […] Similarly, the hexadeuterated internal standard was detected on the 864.4→583.2 transition. […]
Measurement Label: half-life

Q) Please look up its half-life: CO[C@H]1C(=O)[C@]2(C)[C@@H](OC)C[C@H]3OC[C@@]3(OC(C)=O)[C@H]2[C@H](OC(=O)c2ccccc2)[C@]2(O)C[C@H](OC(=O)[C@H](O)[C@@H](NC(=O)OC(C)(C)C)c3ccccc3)C(C)=C1C2(C)C
A) ~30 min

* * *

Measurement Description: Pharmacokinetics in blood: CBZ in plasma by LC-MS/MS in MAS98.12 bearing mice
Assay type: in vivo
Run Conditions: female, athymic nude foxn1nu, mouse, iv, 15 mg/kg, 15 mg/kg i.v., from mean values of the two last time points (24 and 96 h), read-out: elimination half-life (converted)
Measurement Label: half-life

Q) Please look up its half-life: CO[C@H]1C(=O)[C@]2(C)[C@@H](OC)C[C@H]3OC[C@@]3(OC(C)=O)[C@H]2[C@H](OC(=O)c2ccccc2)[C@]2(O)C[C@H](OC(=O)[C@H](O)[C@@H](NC(=O)OC(C)(C)C)c3ccccc3)C(C)=C1C2(C)C
A) ~60 h
